A collection of compounds and their measured Ki
Molecular target: Adenosine receptor A2a (Homo sapiens)
Sequence (P29274 whole entry): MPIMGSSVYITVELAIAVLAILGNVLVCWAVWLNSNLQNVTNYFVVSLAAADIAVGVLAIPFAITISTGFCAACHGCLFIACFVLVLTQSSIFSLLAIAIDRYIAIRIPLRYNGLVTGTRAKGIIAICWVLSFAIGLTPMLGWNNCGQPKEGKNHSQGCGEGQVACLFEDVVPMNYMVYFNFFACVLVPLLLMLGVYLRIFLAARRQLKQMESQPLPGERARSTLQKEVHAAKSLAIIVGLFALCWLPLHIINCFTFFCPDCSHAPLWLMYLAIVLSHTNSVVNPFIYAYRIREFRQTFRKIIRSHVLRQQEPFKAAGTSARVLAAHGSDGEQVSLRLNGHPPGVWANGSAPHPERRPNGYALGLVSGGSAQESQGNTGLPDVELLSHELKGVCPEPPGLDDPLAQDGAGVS

molecular string | Ki
O[C@@H]1[C@H](O)[C@@H]2C[C@@H]2[C@H]1n1cnc2c(NCc3cccc(Cl)c3)ncnc21 | 4520 nM

Give the observed Ki of CNC(=O)[C@]12C[C@@H]1[C@@H](n1cnc3c(NCc4cccc(Cl)c4)nc(C#CCCCCC(=O)NCCN)nc31)[C@H](O)[C@@H]2O for Adenosine receptor A2a (Homo sapiens).
277 nM

Give the observed Ki of O[C@@H]1[C@H](O)[C@@H]2C[C@@H]2[C@H]1n1cnc2c(NC3CCCC3)nc(Cl)nc21 for Adenosine receptor A2a (Homo sapiens).
1640 nM

Give the observed Ki of CNC(=O)[C@]12C[C@@H]1[C@@H](n1cnc3c(NCc4cccc(Cl)c4)nc(C#CCCC(=O)NCCN)nc31)[C@H](O)[C@@H]2O for Adenosine receptor A2a (Homo sapiens).
550 nM

Give the observed Ki of CNC(=O)[C@]12C[C@@H]1[C@@H](n1cnc3c(NCc4cccc(Cl)c4)nc(C#CCCC(=O)NCCCN)nc31)[C@H](O)[C@@H]2O for Adenosine receptor A2a (Homo sapiens).
979 nM

Give the observed Ki of CNC(=O)[C@]12C[C@@H]1[C@@H](n1cnc3c(NCc4cccc(I)c4)ncnc31)[C@H](O)[C@@H]2O for Adenosine receptor A2a (Homo sapiens).
6200 nM
